Molecular target: 5-HT2BR (Homo sapiens, UniProt P41595)
Construct: expressed in transfected cells; host or cells: Flp-In 293 T-Rex (tetracycline inducible)
Sequence (P41595 whole entry): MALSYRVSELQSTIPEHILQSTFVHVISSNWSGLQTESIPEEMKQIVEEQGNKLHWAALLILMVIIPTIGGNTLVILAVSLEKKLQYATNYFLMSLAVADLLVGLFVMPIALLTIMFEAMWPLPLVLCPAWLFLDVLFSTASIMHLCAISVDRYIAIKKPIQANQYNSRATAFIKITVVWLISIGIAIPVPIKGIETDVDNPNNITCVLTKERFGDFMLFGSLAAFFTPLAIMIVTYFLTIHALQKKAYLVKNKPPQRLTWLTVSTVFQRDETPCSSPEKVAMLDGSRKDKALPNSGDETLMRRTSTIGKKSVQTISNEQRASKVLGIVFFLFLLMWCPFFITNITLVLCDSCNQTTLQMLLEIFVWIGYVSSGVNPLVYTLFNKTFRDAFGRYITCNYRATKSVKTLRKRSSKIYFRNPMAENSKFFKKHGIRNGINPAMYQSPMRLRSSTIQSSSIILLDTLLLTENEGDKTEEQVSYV
Test: Calcium flux assay (FLIPR, Fluo-4), 5-HT2BR stable cell line
Type: cell-based
Conditions: value in parentheses
MEASURED_METRIC: 5-HT2BR Rmax ± S.E.M

Data request: Would you kindly share the measured 5-HT2BR Rmax ± S.E.M for CCc1cncn1CCN1CC(c2cccn2C)=CC(C)C1 (racemic) ?
Data returned: 56.3%

----------
Biological target: 5-HT2BR (Homo sapiens, UniProt P41595)
Construct: expressed in transfected cells; host or cells: Flp-In 293 T-Rex (tetracycline inducible)
Test: Calcium flux assay (FLIPR, Fluo-4), 5-HT2BR stable cell line
Format: cell-based
Conditions: value in parentheses
MEASURED_METRIC: 5-HT2BR Rmax ± S.E.M

Data request: Would you kindly share the measured 5-HT2BR Rmax ± S.E.M for CC1C=C(c2cnn(C)c2)CN(CC2(C)COC2)C1 (racemic) ?
Data returned: 48.9%

----------
Molecular target: 5-HT2AR (Homo sapiens, UniProt P28223)
Construct: expressed in transfected cells; host or cells: Flp-In 293 T-Rex (tetracycline inducible)
Sequence (P28223 whole entry): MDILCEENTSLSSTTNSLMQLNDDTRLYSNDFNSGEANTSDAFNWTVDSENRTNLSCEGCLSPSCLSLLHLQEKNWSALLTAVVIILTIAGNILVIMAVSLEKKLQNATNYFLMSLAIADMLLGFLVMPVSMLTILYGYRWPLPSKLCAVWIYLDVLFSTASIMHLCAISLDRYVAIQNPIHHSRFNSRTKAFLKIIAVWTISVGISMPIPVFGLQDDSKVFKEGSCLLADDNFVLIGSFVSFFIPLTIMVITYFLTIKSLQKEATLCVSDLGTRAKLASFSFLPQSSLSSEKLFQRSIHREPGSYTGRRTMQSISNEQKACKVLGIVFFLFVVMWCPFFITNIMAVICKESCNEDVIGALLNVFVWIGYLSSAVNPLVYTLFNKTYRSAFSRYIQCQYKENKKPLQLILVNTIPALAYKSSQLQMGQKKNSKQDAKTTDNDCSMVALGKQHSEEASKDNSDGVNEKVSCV
Assay: Calcium flux assay (FLIPR, Fluo-4), 5-HT2AR stable cell line
Assay type: cell-based
Settings: read-out: 5-HT2AR EC50
I'd be grateful if you could share measured EC50 for these entries.
Use µM as the unit, but write only the number.

Data request: Would you kindly share the measured EC50 for C[C@H]1C=C(c2c[nH]c3ncccc23)CNC1 [compound 39] ?
Data returned: 0.52

Data request: Would you kindly share the measured EC50 for C[C@@H]1C=C(c2c[nH]c3ncccc23)CN(C2CC2)C1 [compound 29] ?
Data returned: 1.36

Data request: Would you kindly share the measured EC50 for CCCN1CC(c2c[nH]c3ncccc23)=C[C@H](C)C1 [Compound 24] ?
Data returned: 0.86

Data request: Would you kindly share the measured EC50 for CCCN1CC(c2cncc(Cl)c2)=C[C@H](C)C1 [Compound 16] ?
Data returned: 1.06

----------
Molecular target: 5-HT2AR (Homo sapiens, UniProt P28223)
Construct: expressed in transfected cells; host or cells: Flp-In 293 T-Rex (tetracycline inducible)
Experiment: Calcium flux assay (FLIPR, Fluo-4), 5-HT2AR stable cell line
Type: cell-based
Details: read-out: 5-HT2AR EC50
MEASURED_METRIC: EC50 (µM)
Use µM as the unit, but write only the number.

Data request: Would you kindly share the measured EC50 for CCCN1CC(c2cncc(Cl)c2)=C[C@@H](C)C1 [Compound 15] ?
Data returned: 5

Data request: Would you kindly share the measured EC50 for c1cnc2[nH]cc(C3CCCNC3)c2c1 (single isomer, unassigned) [compound 51] ?
Data returned: 4.21

Data request: Would you kindly share the measured EC50 for CCCCCN1CC(c2cncc(Cl)c2)=C[C@@H](C)C1 [Compound 9] ?
Data returned: 7.63

Data request: Would you kindly share the measured EC50 for C[C@H]1C=C(c2c[nH]c3ncccc23)CN(C2CC2)C1 [compound 30] ?
Data returned: 3.54

Data request: Would you kindly share the measured EC50 for C[C@@H]1C=C(c2c[nH]c3ncccc23)CN(CC2(C)COC2)C1 [compound 25] ?
Data returned: 4

Data request: Would you kindly share the measured EC50 for C[C@@H]1C=C(c2c[nH]c3ncccc23)CN(Cc2cnco2)C1 [compound 47] ?
Data returned: 0.99

Data request: Would you kindly share the measured EC50 for C[C@H]1C=C(c2c[nH]c3ncccc23)CN(C)C1 [compound 34] ?
Data returned: 1.14

Data request: Would you kindly share the measured EC50 for CCCCN1CC(c2cncc(C)c2)=C[C@H](C)C1 (stereo in doubt) [Compound 14] ?
Data returned: 1.83
